System: Escherichia coli
Assay: Antibacterial activity against duck Escherichia coli assessed as growth inhibition after 7 days by microtiter plate assay
Format: functional
Conditions: 168 h
Reported MIC is given for each of the following compounds.
Answer format: numeric, µg/mL implied, no suffix.

| COMPOUND | MEASURED ENDPOINT | UNIT DESCRIPTOR | OBSERVED MEASUREMENT |
| --- | --- | --- | --- |
| C[C@H]1[C@@H](OCCCN2CCN(c3cc4c(cc3F)c(=O)c(C(=O)O)cn4C3CC3)CC2)O[C@@H]2O[C@@]3(C)CC[C@H]4[C@H](C)CC[C@@H]1[C@@]24OO3 | MIC | µg/mL | 16 |
| C[C@H]1[C@@H](OCCN2CCN(c3cc4c(cc3F)c(=O)c(C(=O)O)cn4C3CC3)CC2)O[C@@H]2O[C@@]3(C)CC[C@H]4[C@H](C)CC[C@@H]1[C@@]24OO3 | MIC | µg/mL | 8 |
| C[C@H]1[C@@H](OC(=O)CCC(=O)N2CCN(c3cc4c(cc3F)c(=O)c(C(=O)O)cn4-c3ccc(F)cc3)CC2)O[C@@H]2O[C@@]3(C)CC[C@H]4[C@H](C)CC[C@@H]1[C@@]24OO3 | MIC | µg/mL | 8 |

q: Recorded MIC for C[C@H]1[C@@H](OCCNC2CCN(c3c(F)cc4c(=O)c(C(=O)O)cn(C5CC5)c4c3Cl)C2)O[C@@H]2O[C@@]3(C)CC[C@H]4[C@H](C)CC[C@@H]1[C@@]24OO3 (stereo partly drawn) , please?
a: 16

q: How about this compound: C[C@H]1[C@@H](OCCCN2CCN(c3cc4c(cc3F)c(=O)c(C(=O)O)cn4-c3ccc(F)cc3)CC2)O[C@@H]2O[C@@]3(C)CC[C@H]4[C@H](C)CC[C@@H]1[C@@]24OO3
a: 4

q: How about this compound: NC1CCN(c2c(F)cc3c(=O)c(C(=O)O)cn(C4CC4)c3c2Cl)C1 (stereo not drawn)
a: 4

q: How about this compound: C[C@H]1[C@@H](OC(=O)CCC(=O)N2CCN(c3cc4c(cc3F)c(=O)c(C(=O)O)cn4C3CC3)CC2)O[C@@H]2O[C@@]3(C)CC[C@H]4[C@H](C)CC[C@@H]1[C@@]24OO3
a: 16

q: How about this compound: C[C@H]1[C@@H](O)O[C@@H]2O[C@@]3(C)CC[C@H]4[C@H](C)CC[C@@H]1[C@@]24OO3
a: 4

The measurements presented in this section are drawn from ChEMBL document CHEMBL3232938.
